- Test system: human non-small-cell lung carcinoma (NCI-H1650) cell line
- procedure details: Cytotoxicity assay (MTT), NCI-H1650
- Format: cell-based
- condition info: Homo sapiens, NCI-H1650; MTT, 24 h treatment
measured metric: IC50

molecule: COc1cc(CC2COC(c3cc(OC)c(O)c(OC)c3)C2CO)cc(OC)c1O (single isomer, unassigned; (+)) [Compound 15, (+)-5,5′-dimethoxylariciresinol]
IC50: > 20 µM

molecule: COc1cc(CC2COC(c3cc(OC)c(O)c(OC)c3)C2CO)ccc1O (single isomer, unassigned; (+)) [Compound 16, (+)-5′-methoxylariciresinol]
IC50: > 20 µM

molecule: COc1cc(/C=C/C(=O)OC[C@@H](Cc2cc(OC)c(O)c(OC)c2)[C@@H](COC(=O)/C=C/c2ccc(O)c(OC)c2)Cc2cc(OC)c(O)c(OC)c2)ccc1O
IC50: > 20 µM

molecule: COc1cc(C=CC(=O)OCC2C(C(=O)c3cc(OC)c(O)c(OC)c3)COC2c2cc(OC)c(O)c(OC)c2)ccc1O (single isomer, unassigned; (+))
IC50: 2.47 µM

molecule: COc1cc(/C=C/C(=O)OC[C@@H](Cc2cc(OC)c(O)c(OC)c2)[C@@H](CO)Cc2cc(OC)c(O)c(OC)c2)ccc1O
IC50: > 20 µM

We next turn to a different molecule, shown below.
Quick one: IC50 for COc1cc([C@@H]2c3c(cc(OC)c(O)c3OC)C=C(C(=O)NCCc3ccc(O)cc3)[C@H]2CO)cc(OC)c1O ?
> 20 µM

====

- Test system: human non-small-cell lung carcinoma (NCI-H1650) cell line
- procedure details: Cytotoxicity assay (MTT), NCI-H1650
- Assay type: cell-based
- condition info: Homo sapiens, NCI-H1650; MTT, 24 h treatment
Each entry below lists one item and its recorded IC50 value.

Consider the following illustrative entries.
compound: COc1cc(C=CC(=O)OCC2C(Cc3ccc(O)c(OC)c3)COC2c2cc(OC)c(O)c(OC)c2)ccc1O (single isomer, unassigned; (+)) [Compound 14]
IC50: 10.5 µM
//
compound: COc1cc(/C=C/C(=O)OC[C@@H](Cc2ccc(O)c(OC)c2)[C@@H](COC(=O)/C=C/c2ccc(O)c(OC)c2)Cc2ccc(O)c(OC)c2)ccc1O [Compound 12]
IC50: > 20 µM
//
compound: COc1cc(C[C@H]2COC(=O)[C@@H]2Cc2ccc(O)c(OC)c2)ccc1O [Compound 18, matairesinol]
IC50: > 20 µM
//
compound: COc1cc(CCNC(=O)C2=Cc3cc(OC)c(O)c(OC)c3[C@@H](c3cc(OC)c(O)c(OC)c3)[C@@H]2C(=O)NCCc2ccc(O)cc2)ccc1O [Compound 3]
IC50: > 20 µM
//
compound: COc1cc(/C=C/C(=O)OC[C@@H](Cc2ccc(O)c(OC)c2)[C@@H](CO)Cc2ccc(O)c(OC)c2)ccc1O [Compound 6]
IC50: > 20 µM

Quick one: IC50 for COc1cc(C=C2C(=O)OCC2Cc2ccc(OC)c(OC)c2)ccc1O (stereo not drawn) [Compound 19, (7E,8R′)-didehydroarctigenin] ?
> 20 µM

====

Each entry below lists one item and its recorded IC50 value.
- Test system: human colon cancer (HCT-116) cell line
- procedure details: Cytotoxicity assay (MTT), HCT-116
- Type: cell-based
- condition info: 24 h treatment
Please respond with the number in µM and leave the unit unwritten.

Quick one: IC50 for COc1cc(C=C2C(=O)OCC2Cc2ccc(OC)c(OC)c2)ccc1O (centres unmarked) [Compound 19, (7E,8R′)-didehydroarctigenin] ?
18.5

Okay, and CC(=O)O[C@H]1C(=O)[C@@]2(C)[C@H]([C@H](OC(=O)c3ccccc3)[C@]3(O)C[C@H](OC(=O)[C@H](O)[C@@H](NC(=O)c4ccccc4)c4ccccc4)C(C)=C1C3(C)C)[C@]1(OC(C)=O)CO[C@@H]1C[C@@H]2O [Taxol, reference compound] ?
0.005

====

Each entry below lists one item and its recorded IC50 value.
- Test system: human non-small-cell lung carcinoma (NCI-H1650) cell line
- procedure details: Cytotoxicity assay (MTT), NCI-H1650
- Type: cell-based
- condition info: Homo sapiens, NCI-H1650; MTT, 24 h treatment

smiles text: COc1cc(CCNC(=O)[C@@H]2C(C(=O)NCCc3ccc(O)cc3)=Cc3cc(OC)c(O)c(OC)c3[C@H]2c2cc(OC)c(O)c(OC)c2)ccc1O
IC50: > 20 µM
//
smiles text: COc1cc(C[C@H]2C(=O)OC[C@@H]2Cc2ccc(OC)c(OC)c2)ccc1O
IC50: > 20 µM

Quick one: IC50 for COc1cc([C@@H]2c3c(cc(OC)c(O)c3OC)C=C(C(=O)NCCc3ccc(O)cc3)[C@H]2C(=O)NCCc2ccc(O)cc2)cc(OC)c1O ?
> 20 µM

====

- Test system: human colon cancer (HCT-116) cell line
- procedure details: Cytotoxicity assay (MTT), HCT-116
- Assay type: cell-based
- condition info: 24 h treatment
Each entry below lists one item and its recorded IC50 value.

molecule: COc1cc(CCNC(=O)[C@@H]2C(C(=O)NCCc3ccc(O)cc3)=Cc3cc(OC)c(O)c(OC)c3[C@H]2c2cc(OC)c(O)c(OC)c2)ccc1O
data value: > 20 µM

Quick one: IC50 for COc1cc(/C=C/C(=O)OC[C@@H](Cc2cc(OC)c(O)c(OC)c2)[C@@H](COC(=O)/C=C/c2ccc(O)c(OC)c2)Cc2cc(OC)c(O)c(OC)c2)ccc1O ?
> 20 µM

Okay, and COc1cc(C=CC(=O)OCC2C(Cc3cc(OC)c(O)c(OC)c3)COC2c2cc(OC)c(O)c(OC)c2)ccc1O (single isomer, unassigned; (+)) ?
> 20 µM
